Molecular target: superoxide anion
Assay: Superoxide dismutase mimetic activity, xanthine oxidase/NBT method
Type: biochemical
Settings: Table 1; peptide:metal 2:1; pH 7.8; experiments A-E, each with its own GHL:Cu control; read-out: CONC. FOR 50% INHIB.
pIC50: −log10 of the molar value.

# substance, measured_target, pIC50
data = [
    ("glycylL-histidyl-L-lysyl-L-valyl-L-phenylalanyl-L-valine:copper(II) [GHLVFV:Cu]", "superoxide anion", 4.64),
    ("lysylL-histidyl-glycyl-L-valyl-L-phenylalanyl-L-valine:copper(II) [LHGVFV:Cu]", "superoxide anion", 4.89),
    ("glycylL-histidyl-L-lysyl-L-alanyl-L-phenylalanyl-L-alanine:copper(II) [GHLAFA:Cu]", "superoxide anion", 5.00),
]
